Ref: paper PMC11699025

Reported CC50 at 48 h by item:
# Procedure Summary: in vitro
# Experimental Setup: human

Compound | CC50 at 48 h
Cc1cc(O)c(O)c(Oc2cc(C)cc(O)c2Oc2cc(C)cc(O)c2O)c1 [Sydowiol B, sydowiol B] | > 200 µM
Cc1cc(O)c(O)c(Oc2cc(C)cc(O)c2O)c1 [Violaceol I, violaceol I] | > 100 µM

----------
# Tested Target: MERS-CoV PLpro (Middle East respiratory syndrome-related coronavirus, UniProt K9N7C7)
# Sequence (K9N7C7 1552-1823 limits assumed): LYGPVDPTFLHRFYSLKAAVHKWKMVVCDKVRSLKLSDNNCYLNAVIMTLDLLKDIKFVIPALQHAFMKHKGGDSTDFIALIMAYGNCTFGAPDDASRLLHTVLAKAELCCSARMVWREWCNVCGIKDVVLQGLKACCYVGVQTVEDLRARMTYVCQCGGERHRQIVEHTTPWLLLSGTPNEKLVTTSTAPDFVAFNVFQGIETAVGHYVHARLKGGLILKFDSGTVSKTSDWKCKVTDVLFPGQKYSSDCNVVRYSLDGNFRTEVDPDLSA
Quantity Name: Kd (nM)

Structure String | Tested Target | Quantity Name | Unit Text | Assay Result
Cc1cc(O)c(O)c(Oc2cc(C)cc(O)c2Oc2cc(C)cc(O)c2O)c1 | MERS-CoV PLpro (Middle East respiratory syndrome-related coronavirus, UniProt K9N7C7) | Kd | nM | 450

----------
# Tested Target: BtCoV Rp3 Mpro (Bat coronavirus Rp3/2004)
# Procedure Summary: biochemical

Structure String | Tested Target | Kd [µM]
Cc1cc(O)c(O)c(Oc2cc(C)cc(O)c2Oc2cc(C)cc(O)c2O)c1 | BtCoV Rp3 Mpro (Bat coronavirus Rp3/2004) | 1.93

----------
# Tested Target: SARS-CoV PLpro (Severe acute respiratory syndrome coronavirus)

Molecule | Tested Target | Kd, µM
Cc1cc(O)c(O)c(Oc2cc(C)cc(O)c2Oc2cc(C)cc(O)c2O)c1 [Sydowiol B, sydowiol B] | SARS-CoV PLpro (Severe acute respiratory syndrome coronavirus) | 14.2

----------
# Tested Target: SARS-CoV Mpro (Severe acute respiratory syndrome coronavirus, UniProt P0C6X7)
Quantity Name: Kd (nM)

Structure String | Quantity Name | Assay Result
Cc1cc(O)c(O)c(Oc2cc(C)cc(O)c2Oc2cc(C)cc(O)c2O)c1 | Kd | 2540

----------
# Tested Target: BtCoV Rp3 Mpro (Bat coronavirus Rp3/2004)
# Procedure Summary: biochemical

Molecule | IC50 [µM]
Cc1cc(O)c(O)c(Oc2cc(C)cc(O)c2Oc2cc(C)cc(O)c2O)c1 [Sydowiol B, sydowiol B] | 1.16

----------
# Tested Target: SARS-CoV-2 PLpro (Severe acute respiratory syndrome coronavirus 2, UniProt P0DTD1)

Structure String | IC50
Cc1cc(O)c(O)c(Oc2cc(C)cc(O)c2O)c1 | 42.3 µM

----------
# Tested Target: SARS-CoV PLpro (Severe acute respiratory syndrome coronavirus, UniProt P0C6X7)
Quantity Name: IC50 (nM)

Structure String | Assay Result
Cc1cc(O)c(O)c(Oc2cc(C)cc(O)c2Oc2cc(C)cc(O)c2O)c1 | 2420

----------
# Tested Target: BtCoV Rp3 PLpro (Bat coronavirus Rp3/2004, UniProt P0C6W6)
# Procedure Summary: biochemical
pKd: −log10 of the molar value.

Structure String | Tested Target | pKd
Cc1cc(O)c(O)c(Oc2cc(C)cc(O)c2Oc2cc(C)cc(O)c2O)c1 | BtCoV Rp3 PLpro (Bat coronavirus Rp3/2004, UniProt P0C6W6) | 4.93
